- test_protocol: Clearance in rat
- Assay type: ADME, organism-based
- settings: in vivo
outcome_measure: clearance (L/h/kg)
Kindly provide the numeric value in L/h/kg only, without the unit symbol.

I am curious: what clearance value has been reported for COCc1nnc(N2CC(Oc3ccc(F)cc3Cl)C2)n1-c1ccc(OC)nc1 ?
2.16

I am curious: what clearance value has been reported for COc1ccc(-n2c(C)nnc2-c2cnc(-c3ccc(F)cc3C)cn2)cn1 ?
3

---

- test_protocol: Protein binding in human serum
- Format: ADME, cell-free
- settings: read-out: PB (converted)
outcome_measure: fraction unbound
Write the number on its own, no unit after it.

I am curious: what fraction unbound value has been reported for CO/N=C1/C[C@@H](CO)N(C(=O)c2ccc(-c3ccccc3C)cc2)C1 ?
0.29

---

- test_protocol: Oral bioavailability in pregnant rat
- Assay type: ADME, organism-based
- settings: female, in vivo
outcome_measure: bioavailability (%)
Kindly provide the numeric value in % only, without the unit symbol.

I am curious: what bioavailability value has been reported for CO/N=C1/C[C@@H](C(=O)NC[C@@H](O)c2ccccc2)N(C(=O)c2ccc(-c3ccccc3C)cc2)C1 ?
49

---

For each of the compounds below, state its Ratio Ki.
- Species on record: Homo sapiens
- test_protocol: Selectivity ratio of Ki for human oxytocin receptor Ki for human vasopressin V1a receptor
Write the number on its own, no unit after it.

I am curious: what Ratio Ki value has been reported for CN(C)CCCNC(=O)CCc1ccc(S(=O)(=O)N(CC(=O)N/N=C2\C(=O)Nc3ccccc32)c2ccc(Cl)cc2)cc1 ?
60

I am curious: what Ratio Ki value has been reported for Cc1ccccc1N1CCN(S(=O)(=O)C[C@]23CC[C@H](C[C@@H]2NC(=O)[C@@H](N)CCS(C)(=O)=O)C3(C)C)CC1 ?
14

I am curious: what Ratio Ki value has been reported for COc1cc(OC2CCN(Cc3ccc[n+]([O-])c3C)CC2)ccc1C(=O)N1CCC(N2C(=O)OCc3ccccc32)CC1 ?
650

I am curious: what Ratio Ki value has been reported for CO/N=C1/C[C@@H](C(=O)NC[C@@H](O)c2ccccc2)N(C(=O)c2ccc(-c3ccccc3C)cc2)C1 ?
6

I am curious: what Ratio Ki value has been reported for COCc1nnc(N2CC(Oc3ccc(F)cc3Cl)C2)n1-c1ccc(OC)nc1 ?
118

I am curious: what Ratio Ki value has been reported for CCOc1ccc(S(=O)(=O)N(CC(=O)N/N=C2\C(=O)Nc3ccccc32)c2ccc(C)cc2)cc1 ?
100

I am curious: what Ratio Ki value has been reported for O=C(Cn1cc(C(F)(F)F)ccc1=O)NCc1cc2cc(C(=O)N3CCC(N4C(=O)OCc5ccccc54)CC3)ccc2o1 ?
630

I am curious: what Ratio Ki value has been reported for CC1(C)[C@@H]2CC[C@@]1(CS(=O)(=O)N1CCC3(C=Cc4ccccc43)CC1)[C@@](O)(CC(=O)O)C2 ?
3

I am curious: what Ratio Ki value has been reported for COc1ccc(N(Cc2ccc(-c3ccccc3C)cn2)S(=O)(=O)c2cn(C)c(C)n2)cn1 ?
80

---

- test_protocol: Half life in rhesus monkey
- Type: ADME, organism-based, Macaca mulatta
- settings: in vivo
outcome_measure: half-life (h)
Kindly provide the numeric value in h only, without the unit symbol.

I am curious: what half-life value has been reported for COc1cc(OC2CCN(Cc3ccc[n+]([O-])c3C)CC2)ccc1C(=O)N1CCC(N2C(=O)OCc3ccccc32)CC1 ?
2
